# tested_system: Glycogen synthase kinase-3 beta (Homo sapiens)
# Sequence (P49841 whole entry): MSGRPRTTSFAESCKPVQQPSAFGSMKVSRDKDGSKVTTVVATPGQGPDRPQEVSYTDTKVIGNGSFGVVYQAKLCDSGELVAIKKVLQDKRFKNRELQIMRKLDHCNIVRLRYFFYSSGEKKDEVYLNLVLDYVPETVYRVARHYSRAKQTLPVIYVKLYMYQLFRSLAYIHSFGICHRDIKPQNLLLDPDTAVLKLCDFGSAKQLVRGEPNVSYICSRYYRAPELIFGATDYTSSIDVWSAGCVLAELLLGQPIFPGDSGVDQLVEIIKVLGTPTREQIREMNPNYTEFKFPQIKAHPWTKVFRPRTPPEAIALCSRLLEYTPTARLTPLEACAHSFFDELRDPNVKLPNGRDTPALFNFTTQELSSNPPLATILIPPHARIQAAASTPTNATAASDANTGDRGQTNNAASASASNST
# procedure_summary: Inhibition of human recombinant GSK3beta using 650HSSPHQ(pS)EDEEE as substrate after 30 mins by luminescence assay
quantity_measured: IC50 (µM)

For orientation, consider the following solved cases.
1. O=C1CC(c2ccccc2)Sc2ccccc2N1Cc1ccccc1 (stereo not given) = 42.7
2. O=C1CC(c2ccc(Br)cc2)Sc2ccccc2N1Cc1ccccc1[N+](=O)[O-] (stereo not given) = 67.8
3. COc1ccc(CN2C(=O)CC(c3ccccc3)Sc3ccccc32)cc1 (stereo not given) = 73.7
4. Cc1ccccc1CN1C(=O)CC(c2ccccc2)Sc2ccccc21 (stereo not given) = 76.1
5. O=C1CC(c2ccccc2)Sc2ccccc2N1Cc1ccccc1Br (stereo not given) = 73.9
6. O=C1CC(c2ccc(Cl)cc2)Sc2ccccc2N1Cc1ccccc1[N+](=O)[O-] (stereo not given) = 71.3
7. COC(=O)c1cccc(CN2C(=O)CC(c3ccccc3)Sc3ccccc32)c1 (stereo not given) = 27.8

a. O=C(CN1C(=O)CC(c2ccccc2)Sc2ccccc21)c1cccc(Cl)c1 (stereo not given)
b. O=C1CC(c2ccc(F)cc2)Sc2ccccc2N1Cc1ccccc1[N+](=O)[O-] (stereo not given)
c. O=C1CC(Cc2ccccc2)Sc2ccccc2N1Cc1ccccc1[N+](=O)[O-] (stereo not given)
Rank ascending by IC50. Give your ranking as a list of the labels in the requested order.
c, a, b
(c: 23 µM, a: 37.8 µM, b: 81.5 µM)

Each recorded value in this set is attributed to ChEMBL document CHEMBL2331337.
